Target: hNotch1ICD (Homo sapiens)
Construct: pLV[Tet]-Puro-TRE3G>Notch1-ICD; expressed in transfected cells; host or cells: 293A cells
Sequence (P46531 1754-2555 limits assumed): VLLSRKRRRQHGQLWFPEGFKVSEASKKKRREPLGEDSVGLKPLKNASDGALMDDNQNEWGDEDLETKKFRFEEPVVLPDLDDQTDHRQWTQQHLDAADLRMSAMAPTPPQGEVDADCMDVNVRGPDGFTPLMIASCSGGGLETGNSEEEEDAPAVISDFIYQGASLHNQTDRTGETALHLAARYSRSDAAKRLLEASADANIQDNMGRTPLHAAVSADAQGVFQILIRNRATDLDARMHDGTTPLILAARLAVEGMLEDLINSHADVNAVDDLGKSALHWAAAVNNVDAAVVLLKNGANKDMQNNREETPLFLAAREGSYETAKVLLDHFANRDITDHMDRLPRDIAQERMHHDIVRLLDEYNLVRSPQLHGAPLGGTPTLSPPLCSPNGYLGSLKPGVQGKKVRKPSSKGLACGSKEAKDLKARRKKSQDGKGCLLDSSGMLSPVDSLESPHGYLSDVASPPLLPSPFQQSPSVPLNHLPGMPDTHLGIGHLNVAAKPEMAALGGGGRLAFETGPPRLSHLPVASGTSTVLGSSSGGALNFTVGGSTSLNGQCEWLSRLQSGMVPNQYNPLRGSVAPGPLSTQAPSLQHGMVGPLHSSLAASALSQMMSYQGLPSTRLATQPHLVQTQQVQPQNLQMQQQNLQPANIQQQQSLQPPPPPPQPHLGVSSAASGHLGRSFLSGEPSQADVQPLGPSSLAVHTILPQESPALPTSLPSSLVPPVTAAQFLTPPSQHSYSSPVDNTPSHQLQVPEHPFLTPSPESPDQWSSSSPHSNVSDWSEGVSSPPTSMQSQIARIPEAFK
Experiment: Notch1 Reporter Assay (Dox-inducible Notch1-ICD, CSL-responsive luciferase in 293A cells)
Type: cell-based
Settings: 293A cells, 24 h, luciferase normalized to cell viability; read-out: Notch1 Reporter Assay IC50
pIC50: −log10 of the molar value.
Cut-off 5 on pIC50: below means criterion met, at or above means criterion not met.

[Q] Decide: pIC50 of Cc1ccccc1NC(=O)c1c(O)c2ccccc2n(CC(C)C)c1=O [compound 535] strictly below 5?
[A] criterion not met

[Q] API: query returns whether the compound falls strictly under 5 in pIC50. Query: CC(C)Cn1c(=O)c(C(=O)Nc2cccc(N3CCOCC3)c2)c(O)c2ccccc21 [compound 554]
[A] criterion not met

[Q] # check: pIC50 < 5 for Cc1ncccc1NC(=O)c1c(O)c2ccccc2n(CC(C)C)c1=O [compound 540]
[A] criterion met

[Q] Could you please tell me whether pIC50 recorded for CC(C)Cn1c(=O)c(C(=O)Nc2ccccc2N2CCN(C)CC2)c(O)c2ccccc21 [568(02)] is less than 5?
[A] criterion not met

[Q] Item CC(C)Cn1c(=O)c(C(=O)Nc2cccc(F)c2)c(O)c2ccc(Br)cc21 [SSTN-567] : pIC50 beneath 5, strictly?
[A] criterion met

[Q] Hello, I'm reviewing records and need to know if pIC50 of CC(C)Cn1c(=O)c(C(=O)Nc2cccc(N(C)C3CC3)c2)c(O)c2ccccc21 [compound 561] is below 5. Could you check?
[A] criterion met

[Q] Determine if CC(C)Cn1c(=O)c(C(=O)Nc2ccc(F)cc2)c(O)c2ccccc21 [compound 539] shows pIC50 strictly lower than 5.
[A] criterion not met

* * *

Biological target: hNotch1ICD (Homo sapiens)
Construct: pLV[Tet]-Puro-TRE3G>Notch1-ICD; expressed in transfected cells; host or cells: 293A cells
Assay: Notch1 Reporter Assay (Dox-inducible Notch1-ICD, CSL-responsive luciferase in 293A cells)
Assay type: cell-based
Conditions: 293A cells, 24 h, luciferase normalized to cell viability; read-out: Notch1 Reporter Assay IC50
pIC50: −log10 of the molar value.
Note to self: pIC50 under 5 means Criterion met, ties and anything higher get Criterion not met.

[Q] # check: pIC50 < 5 for CC(C)Cn1c(=O)c(C(=O)Nc2cccc(F)c2)c(O)c2cc(N3CCN(C)CC3)ccc21 [577(02)]
[A] Criterion not met

[Q] Take the compound CCCn1c2c(c(O)c(C(=O)Nc3ccccn3)c1=O)CCCC2 and say whether its pIC50 is less than 5.
[A] Criterion met

[Q] Here's an entry: CC(C)Cn1c(=O)c(C(=O)Nc2cccc(N3CCNCC3)c2)c(O)c2ccccc21 . Is its pIC50 below 5?
[A] Criterion not met

[Q] Please check: pIC50 for Cc1ccncc1NC(=O)c1c(O)c2ccccc2n(CC(C)C)c1=O , strictly under 5 or not?
[A] Criterion met

[Q] State whether 5 exceeds pIC50 recorded for CC(C)Cn1c(=O)c(C(=O)Nc2ncccc2O)c(O)c2ccccc21 .
[A] Criterion met

* * *

Biological target: hNotch1ICD (Homo sapiens)
Construct: pLV[Tet]-Puro-TRE3G>Notch1-ICD; expressed in transfected cells; host or cells: 293A cells
Assay: Notch1 Reporter Assay (Dox-inducible Notch1-ICD, CSL-responsive luciferase in 293A cells)
Assay type: cell-based
Settings: 293A cells, 24 h, luciferase normalized to cell viability; read-out: Notch1 Reporter Assay IC50
Method: 293A cells expressing 1) pCMV-Tet-On 3G, 2) pLV[Tet]-Puro-TRE3G>Notch1-ICD, 3) pLV[Tet]-Puro-TRE3G>Notch2-ICD, 4) pLV[Tet]-Puro-TRE3G>Notch3-ICD, and 5) pCSL-RElement-Luc were used. […] Results are analyzed and IC50′s are determined in GraphPad by nonlinear regression curve fitting (4 parameter) of dose response curves.
pIC50: −log10 of the molar value.
With a cut-off of 5, any pIC50 strictly below it is called met; any pIC50 meeting it or above is called not met.

[Q] State whether 5 exceeds pIC50 recorded for CC(C)Cn1c(=O)c(C(=O)Nc2ccc(F)cc2N2CCN(C)CC2)c(O)c2ccccc21 [570(01)] .
[A] not met

[Q] Please let me know if CC(C)Cn1c(=O)c(C(=O)Nc2ccn(C)n2)c(O)c2ccccc21 [compound 533] shows pIC50 below 5.
[A] met

[Q] Decide: pIC50 of O=C(Nc1ccccc1)c1c(O)c2c(n(Cc3ccco3)c1=O)CCCC2 [SSTN-379] strictly below 5?
[A] met

[Q] # check: pIC50 < 5 for Cc1ccnc(NC(=O)c2c(O)c3ccccc3n(Cc3ccccc3)c2=O)c1 [SSTN-410]
[A] met

[Q] Lab note: pIC50 threshold 5. Does this compound come in strictly under it? CC(C)Cn1c(=O)c(C(=O)Nc2ncco2)c(O)c2ccccc21 [compound 528]
[A] met

[Q] is_below(pIC50, 5) for CC(C)Cn1c(=O)c(C(=O)Nc2cc(F)cc(N3CCN(C)CC3)c2)c(O)c2ccccc21 [583(02)] ?
[A] not met

[Q] Confirm or reject: pIC50 of Cc1cccnc1NC(=O)c1c(O)c2cc(N3CCN(C)CC3)ccc2n(CC(C)C)c1=O [579(01)] lies strictly below 5
[A] met
